Where these numbers come from: PubChem BioAssay

molecular target: Calmodulin-1 (Homo sapiens) (UniProt P0DP23); experiment: calcium-bound CALM1 binders on microarrays, profiling panel, artefact control for SMM control-protein annotation, biochemical, small-molecule microarray, Cy5-labelled CALM1, plus calcium (AID 1112); settings: Cy5-CALM1 binding fluorescence, higher = more signal;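 also: score merges spot fluorescence with signal to noise from triplicate slides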
Documented composite z-score across a set of molecules
Number only, no unit.

[[record]]
compound_structure_string = "COC(=O)C(CC#Cc1ccc2c(c1)[C@]1(C(=O)N2)[C@H](C(=O)O)[C@H]2C(=O)O[C@H](c3ccccc3)[C@H](c3ccccc3)N2[C@@H]1c1ccc(O)cc1)C(=O)OC"
parameter_measured = "composite z-score"
measurement = 0.0677

[[record]]
compound_structure_string = "C=CC[C@]1(C(=O)NCCCOC)N=C(c2ccc(OCCCO)cc2)O[C@H]1c1ccccc1N=[N+]=[N-]"
parameter_measured = "composite z-score"
measurement = 0.312


Now look at this entry.
Looking for the measured composite z-score of COc1ccc([Si](C)(C)[C@H]2[C@H](CCO)O[C@@]3(C(=O)N(C)c4c(Br)cc(C)cc43)[C@@H]2C)cc1 , can you help?
0.204
